Test: in vivo
Design: species or system mice
Conditions: mouse, iv, 3.4 MBq, total radioactivity, Biodistribution, Kidney
Observation type: tissue uptake at 2 h

## Task Quick check: tissue uptake at 2 h of CC(=O)NC(CCCCNC(=O)CN1CCN(CC(=O)O)CCN(CC(=O)O)CCN(CC(=O)O)CC1)C(=O)N1CCCC1C(=O)N(C)C(CCCNC(=N)N)C(=O)NC(CCCNC(=N)N)C(=O)N1CCCC1C(=O)NC(Cc1ccc(O)cc1)C(=O)NC(C(=O)NC(CC(C)C)C(=O)O)C(C)(C)C (stereo not shown) [^68Ga-DOTA-NT-20.3, metal not drawn] ?
## Result 26.1 %ID/g
